Molecular target: human mGlu2 receptor (Homo sapiens)
Construct: expressed in transfected cells; host or cells: CHO cells
Sequence (Q14416 19-872): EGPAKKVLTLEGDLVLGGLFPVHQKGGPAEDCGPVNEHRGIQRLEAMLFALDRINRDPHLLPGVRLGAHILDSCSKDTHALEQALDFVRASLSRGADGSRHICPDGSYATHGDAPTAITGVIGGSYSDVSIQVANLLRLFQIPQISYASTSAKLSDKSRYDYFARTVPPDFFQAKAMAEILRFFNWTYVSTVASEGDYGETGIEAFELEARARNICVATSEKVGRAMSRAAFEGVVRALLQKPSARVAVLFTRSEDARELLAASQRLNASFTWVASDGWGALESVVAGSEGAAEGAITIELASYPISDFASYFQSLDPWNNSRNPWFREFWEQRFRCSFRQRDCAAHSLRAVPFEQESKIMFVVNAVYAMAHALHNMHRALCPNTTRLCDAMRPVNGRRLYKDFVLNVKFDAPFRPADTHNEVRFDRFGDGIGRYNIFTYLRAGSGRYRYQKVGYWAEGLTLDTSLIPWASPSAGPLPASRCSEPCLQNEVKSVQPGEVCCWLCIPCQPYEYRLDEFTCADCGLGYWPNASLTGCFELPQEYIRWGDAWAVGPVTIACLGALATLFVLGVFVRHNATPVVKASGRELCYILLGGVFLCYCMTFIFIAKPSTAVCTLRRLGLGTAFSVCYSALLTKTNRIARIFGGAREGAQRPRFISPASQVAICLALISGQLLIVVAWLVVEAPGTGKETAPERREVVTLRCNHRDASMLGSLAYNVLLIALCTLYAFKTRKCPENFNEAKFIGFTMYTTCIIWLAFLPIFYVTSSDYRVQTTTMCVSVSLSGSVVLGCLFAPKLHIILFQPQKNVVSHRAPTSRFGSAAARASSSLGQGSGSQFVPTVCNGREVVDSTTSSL
Test: [35S]GTPγS binding assay (mGluR2 negative allosteric modulation, glutamate ~EC80 60 μM)
Assay type: biochemical
Conditions: membranes from CHO cells transfected with human mGlu2 receptor; glutamate ~EC80 (60 μM); pIC50 = −log IC50 (M); read-out: GTPγS-hmGluR2 anGT pIC50 (converted)
Protocol: 1) [^35S]GTPγS Binding Assay [^35S]GTPγS Binding Assay Total reaction volume was 200 μl. […] Membrane-bound radioactivity was counted in a Topcount.
assayReadout: IC50 (M)
# value in M; strip the unit string

{"itemSmiles": "C[C@H]1CN(c2ccc(C(F)(F)F)cc2)C(=O)c2c(NC(=O)c3ccc(N)nc3)cnn21", "IC50, M": "2.14e-09"}
{"itemSmiles": "COc1cncc(C(=O)Nc2cnn3c2C(=O)N(c2ccc(C(F)(F)F)cc2)C[C@@H]3C)n1", "IC50, M": "2.24e-09"}
{"itemSmiles": "COc1ccc(F)cc1C(=O)Nc1cnn2c1C(=O)N(c1ccc(C(F)(F)F)cc1)C[C@@H]2C", "IC50, M": "2.57e-09"}

## Task Please list IC50 recorded for the compound Cc1cc(N)ncc1C(=O)Nc1cnn2c1C(=O)N(c1ccc(C(F)(F)F)c(Cl)c1)C[C@@H]2C
## Result 1.35e-09

## Task Please list IC50 recorded for the compound C[C@H]1CN(c2ccc(Cl)c(Cl)c2)C(=O)c2c(NC(=O)C(F)(F)F)cnn21
## Result 2.29e-08

## Task Please list IC50 recorded for the compound Cc1cncc(C(=O)Nc2cnn3c2C(=O)N(c2ccc(Cl)c(Cl)c2)C[C@@H]3C)c1
## Result 9.77e-10

## Task Please list IC50 recorded for the compound C[C@H]1CN(c2ccc(C(F)(F)F)cc2)C(=O)c2c(NC(=O)Cc3ccccc3)cnn21
## Result 2e-07

## Task Please list IC50 recorded for the compound C[C@H]1CN(c2ccc(C(F)(F)F)cc2)C(=O)c2c(NC(=O)c3ccnc(N)c3)cnn21
## Result 1.38e-08

## Task Please list IC50 recorded for the compound Cc1cc(C(=O)Nc2cnn3c2C(=O)N(c2ccc(C(F)(F)F)c(F)c2)C[C@@H]3C)cc(C)n1
## Result 5.62e-09

## Task Please list IC50 recorded for the compound Cc1cc(C(=O)Nc2cnn3c2C(=O)N(c2ccc(Cl)c(Cl)c2)C[C@@H]3C)ccn1
## Result 2.29e-09

## Task Please list IC50 recorded for the compound COc1cncc(C(=O)Nc2cnn3c2C(=O)N(c2ccc(Cl)cc2)C[C@@H]3C)c1
## Result 1.74e-08
